# test.system: Sodium-dependent serotonin transporter (Rattus norvegicus)
# Sequence (P31652 whole entry): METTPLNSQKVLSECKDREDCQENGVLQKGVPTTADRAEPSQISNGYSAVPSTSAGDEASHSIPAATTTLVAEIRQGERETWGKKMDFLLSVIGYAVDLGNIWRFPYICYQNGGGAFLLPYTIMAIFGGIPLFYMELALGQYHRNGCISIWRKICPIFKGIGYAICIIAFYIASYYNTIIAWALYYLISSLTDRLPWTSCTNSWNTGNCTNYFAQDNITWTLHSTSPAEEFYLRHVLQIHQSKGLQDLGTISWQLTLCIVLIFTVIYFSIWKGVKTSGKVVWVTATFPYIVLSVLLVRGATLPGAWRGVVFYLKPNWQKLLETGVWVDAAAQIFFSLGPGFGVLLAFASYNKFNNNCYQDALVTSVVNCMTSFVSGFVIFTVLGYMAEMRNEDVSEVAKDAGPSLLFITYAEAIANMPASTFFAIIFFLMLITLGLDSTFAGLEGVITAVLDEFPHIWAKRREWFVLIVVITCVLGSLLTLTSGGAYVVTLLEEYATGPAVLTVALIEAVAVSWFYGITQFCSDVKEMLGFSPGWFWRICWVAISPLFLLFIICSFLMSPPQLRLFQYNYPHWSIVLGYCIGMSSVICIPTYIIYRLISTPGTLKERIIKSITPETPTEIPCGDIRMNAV
measurement.name: pKi
Conceptually, pKi converts a concentration in mol/L into minus its log10.

Prompt: Write down the reported pKi of CC[C@@H](CO)NC(=O)[C@@H]1C=C2c3cccc4c3c(cn4C)C[C@H]2N(C)C1 , test system: Sodium-dependent serotonin transporter (Rattus norvegicus).
Response: 5.43
